Reported IC50 values for a set of molecules
- System: HCT116 cells
- assay_comment: In vitro assay of inhibition of proliferation in whole cells (Promega MTS assay)
- Type: cell-based
- setup_conditions: Homo sapiens, HCT-116, 72 hours treatment, read-out: Test (b) IC50

- molecule: "Cc1cc(CN2CCC2)cnc1-c1ccc(C(=O)Nc2ccccc2N)cc1 [Example 4]"
  unit_tag: "nM"
  IC50: 310
- molecule: "Nc1ccccc1NC(=O)c1ccc(-c2ccccn2)cc1 [Comparator, reference compound]"
  unit_tag: "nM"
  IC50: 2330
- molecule: "Cc1cc(CN2CCN(C(C)C)CC2)cnc1-c1ccc(C(=O)Nc2ccccc2N)cc1 [Example 2]"
  unit_tag: "nM"
  IC50: 238

// data source = patent US20080119451A1
